Tested on: yellow nutsedge
experiment.description: Test C pre-/postemergence test
Format: in vivo, Cyperus esculentus
condition.summary: 62 g ai/ha, Preemergence; scale 0 to 100
measured.property: Nutsedge, Yellow plant response rating
Output spec: single numeric token, no unit.

Guide cases for Nutsedge, Yellow plant response rating, answers given:
> print(dat)
                                   compound  observed.result
1  Cn1nc(C(F)(F)F)c(CS(=O)(=O)c2ccc(Cl)c[n+]2[O-])c1OCC(F)(F)F [Compound 73]                0
2  Cc1cc[n+]([O-])c(S(=O)(=O)C(Cl)c2c(C(F)(F)F)nn(C)c2Cl)c1 (racemic) [Compound 22]               60
3  C#CCOc1c(CS(=O)(=O)c2cccc[n+]2[O-])c(C(F)(F)F)nn1C [Compound 103]               70

Shifting focus to the compound that follows.
Note to self: Nutsedge, Yellow plant response rating recorded for CCc1cc[n+]([O-])c(S(=O)(=O)Cc2c(C(F)(F)F)nn(C)c2OC(F)F)c1 [Compound 102] was 50

====

Test system: corn
experiment.description: Test A pre-/postemergence greenhouse test
Assay type: in vivo, Zea mays
condition.summary: Postemergence, 125 g ai/ha; 0 to 100 scale, 0 is no effect, 100 is complete control
measured.property: Corn plant response rating
Output spec: single numeric token, no unit.

> print(dat)
                                   compound           measured.property  observed.result
1  Cn1nc(C(F)(F)F)c(CS(=O)(=O)c2cc(F)cc[n+]2[O-])c1Cl  Corn plant response rating                0

Note to self: Corn plant response rating recorded for Cn1nc(C(F)(F)F)c(C[S+]([O-])c2cc(C(F)(F)F)cc[n+]2[O-])c1Cl (racemic) was 0

Note to self: Corn plant response rating recorded for Cc1cc[n+]([O-])c([S+]([O-])Cc2c(C(F)(F)F)nn(C)c2OCC(F)(F)F)c1 (racemic) was 50

Note to self: Corn plant response rating recorded for Cn1nc(C(F)(F)F)c(CS(=O)(=O)c2ccc(Br)c[n+]2[O-])c1OC(F)F was 0

====

Quick reference: Plant response rating, Nutsedge, Yellow of the listed items.
Test system: yellow nutsedge
experiment.description: Test C pre-/postemergence test
Assay type: in vivo, Cyperus esculentus
condition.summary: Preemergence, 31 g ai/ha; scale 0 to 100 (0 no effect, 100 complete control)
Output spec: single numeric token, no unit.

> print(dat)
                                   compound  observed.result
1  Cn1nc(C(F)(F)C(F)(F)F)c(C[S+]([O-])c2cccc[n+]2[O-])c1OCC(F)(F)F (stereo not drawn)                0
2  Cn1nc(C(F)(F)F)c(C[S+]([O-])c2cccc[n+]2[O-])c1OCC(F)(F)F (racemic)               80
3  CC(Oc1c(C[S+]([O-])c2cccc[n+]2[O-])c(C(F)(F)F)nn1C)C(F)(F)F (stereo not drawn)               50
4  Cc1cc[n+]([O-])c(S(=O)(=O)Cc2c(C(F)(F)F)nn(C)c2OC(C)C(F)(F)F)c1 (stereo not drawn)               40
5  Cc1cc[n+]([O-])c(S(=O)(=O)Cc2c(C(F)(F)F)nn(C)c2OCC(F)(F)F)c1               60
6  Cn1nc(C(F)(F)F)c(CS(=O)(=O)c2ccc(Cl)c[n+]2[O-])c1OCC(F)(F)F                0
7  Cn1nc(C(F)(F)F)c(CS(=O)(=O)c2cc(C(C)(C)C)cc[n+]2[O-])c1OC(F)F                0
8  Cn1nc(C(F)(F)F)c(C[S+]([O-])c2ccc(Cl)c[n+]2[O-])c1OCC(F)(F)F (racemic)                0

Shifting focus to the compound that follows.
Note to self: Plant response rating, Nutsedge, Yellow recorded for Cc1cc[n+]([O-])c(S(=O)(=O)Cc2c(C(F)(F)C(F)(F)F)nn(C)c2OCC(F)(F)F)c1 was 0

====

System: giant foxtail
experiment.description: Test A pre-/postemergence greenhouse test
Assay type: in vivo, Setaria faberi
condition.summary: Preemergence, 125 g ai/ha; 0 to 100 scale, 0 no effect, 100 complete control
Quick reference: Foxtail, Giant plant response rating of the listed items.
Output spec: single numeric token, no unit.

Guide cases for Foxtail, Giant plant response rating, answers given:
> print(dat)
                                   compound                     measured.property  observed.result
1  Cn1nc(C(F)(F)F)c(C[S+]([O-])c2cccc[n+]2[O-])c1OCC(F)F (stereo not shown)  Foxtail, Giant plant response rating               90
2  Cc1cc[n+]([O-])c([S+]([O-])Cc2c(C(F)(F)F)nn(C)c2OC(C)C(F)(F)F)c1 (stereo not shown)  Foxtail, Giant plant response rating               90

Note to self: Foxtail, Giant plant response rating recorded for CCCc1cc[n+]([O-])c(S(=O)(=O)Cc2c(C(F)(F)F)nn(C)c2OCC(F)(F)F)c1 was 90

Note to self: Foxtail, Giant plant response rating recorded for Cn1nc(C(F)(F)F)c(C(Cl)S(=O)(=O)c2cccc[n+]2[O-])c1Cl (stereo not shown) was 80

Note to self: Foxtail, Giant plant response rating recorded for Cn1nc(C(F)(F)F)c(CS(=O)(=O)c2ccc(F)c[n+]2[O-])c1OC(F)F was 60

Note to self: Foxtail, Giant plant response rating recorded for Cc1cc[n+]([O-])c(S(=O)(=O)Cc2c(C(F)(F)F)nn(C)c2Cl)c1 was 80

Note to self: Foxtail, Giant plant response rating recorded for Cn1nc(C(F)(F)C(F)(F)F)c(C[S+]([O-])c2cccc[n+]2[O-])c1OCC(F)(F)F (stereo not shown) was 90

Note to self: Foxtail, Giant plant response rating recorded for Cn1nc(C(F)(F)F)c(CS(=O)(=O)c2ccc(Cl)c[n+]2[O-])c1Cl was 90

Note to self: Foxtail, Giant plant response rating recorded for Cc1cc[n+]([O-])c(S(=O)(=O)Cc2c(C(F)(F)F)nn(C)c2OC(F)F)c1 was 100

Note to self: Foxtail, Giant plant response rating recorded for Cc1cc[n+]([O-])c([S+]([O-])Cc2c(C(F)(F)F)nn(C)c2OCC(F)(F)F)c1 (racemic) was 100

====

Test system: kochia
experiment.description: Test C pre-/postemergence test
Format: in vivo, Kochia scoparia
condition.summary: 125 g ai/ha, preemergence; scale 0 (no effect) to 100 (complete control)
measured.property: Kochia plant response rating
Output spec: single numeric token, no unit.

> print(dat)
                                   compound  observed.result
1  CC(Oc1c(CS(=O)(=O)c2cccc[n+]2[O-])c(C(F)(F)F)nn1C)C(F)(F)F (stereo not drawn) [Compound 82]              100
2  CCn1nc(C(F)(F)F)c(C[S+]([O-])c2cccc[n+]2[O-])c1OCC(F)(F)F (racemic) [Compound 65]              100

Shifting focus to the compound that follows.
# CC(Oc1c(C[S+]([O-])c2ccc(Cl)c[n+]2[O-])c(C(F)(F)F)nn1C)C(F)(F)F (stereo not drawn) [Compound 87] with kochia: Kochia plant response rating is 80

====

Test system: wild oat
experiment.description: Test C pre-/postemergence test
Type: in vivo, Avena fatua
condition.summary: 125 g ai/ha, preemergence; scale 0 (no effect) to 100 (complete control)
measured.property: Oat, Wild plant response rating
Output spec: single numeric token, no unit.

> print(dat)
                                   molecule  observed.result
1  Cn1nc(C(F)(F)F)c(CS(=O)(=O)c2ccc(Cl)c[n+]2[O-])c1OCC(F)(F)F               60

Note to self: Oat, Wild plant response rating recorded for CCc1cc[n+]([O-])c(S(=O)(=O)Cc2c(C(F)(F)F)nn(C)c2OC(F)F)c1 was 90

Note to self: Oat, Wild plant response rating recorded for CCc1cc[n+]([O-])c(S(=O)(=O)Cc2c(C(F)(F)F)nn(C)c2OCC(F)(F)F)c1 was 90

Note to self: Oat, Wild plant response rating recorded for CCc1cc[n+]([O-])c([S+]([O-])Cc2c(C(F)(F)F)nn(C)c2OCC(F)(F)F)c1 (stereo not shown) was 90

====

Tested on: woolly cupgrass
experiment.description: Test C pre-/postemergence test
Assay type: in vivo, Eriochloa villosa
condition.summary: 125 g ai/ha, preemergence; scale 0 (no effect) to 100 (complete control)
Quick reference: Cupgrass, Woolly plant response rating of the listed items.

Guide cases for Cupgrass, Woolly plant response rating, answers given:
> print(dat)
                                   compound                       measured.property  observed.result
1  Cn1nc(C(F)(F)F)c(C(Cl)S(=O)(=O)c2cccc[n+]2[O-])c1OCC(F)(F)F (racemic) [Compound 36]  Cupgrass, Woolly plant response rating              100
2  Cc1cc([S+]([O-])Cc2c(C(F)(F)F)nn(C)c2OCC(F)(F)F)[n+]([O-])cc1Cl (stereo not shown) [Compound 70]  Cupgrass, Woolly plant response rating              100
3  Cn1nc(C(F)(F)F)c(C[S+]([O-])c2cc(Br)cc[n+]2[O-])c1Cl (racemic) [Compound 35]  Cupgrass, Woolly plant response rating               85

Note to self: Cupgrass, Woolly plant response rating recorded for Cn1nc(C(F)(F)C(F)(F)F)c(C[S+]([O-])c2ccc(Cl)c[n+]2[O-])c1OCC(F)(F)F (stereo not shown) [Compound 92] was 98
